System: P. falciparum W2 (MRA-157, chloroquine resistant)
Assay: SYBR Green I growth inhibition assay, W2
Type: cell-based, Plasmodium falciparum
Conditions: Plasmodium falciparum, W2, 72 h, early-ring stage, 72 h exposure
Measured endpoint: IC50 (nM)

INSERT INTO assay_data (item_smiles, endpoint_value) VALUES
  ('[C-]#[N+][C@]1(C)CC[C@H]2[C@@H]([C@@H](C(C)C)CC[C@]2(C)[N+]#[C-])[C@H]1O', 27);

* * *

Experiment: Pharmacokinetics after oral administration to P. falciparum-infected mice (Table S10)
Assay type: in vivo, P. falciparum-infected SCID mice
Settings: SCID, mouse, whole blood, po, 50 mg/kg, 50mg/kg oral in 1% Methylcellulose, infected mice, individual mice 1 and 2; read-out: Cmax
Measured endpoint: Cmax (ng/mL)

INSERT INTO assay_data (item_smiles, measured_endpoint, endpoint_unit, endpoint_value) VALUES
  ('[C-]#[N+][C@]1(C)CC[C@H]2[C@@H]([C@@H](C(C)C)CC[C@]2(C)[N+]#[C-])[C@H]1O', 'Cmax', 'ng/mL', 6860);

* * *

Experiment: Pharmacokinetic profile at 25 and 50 mg/Kg (Table S9b)
Type: in vivo, Male CD1 mouse
Details: male, CD1, mouse, whole blood, po; 50 mg/Kg, individual mice
Measured endpoint: Tmax

INSERT INTO results (item_smiles, endpoint_value) VALUES
  ('[C-]#[N+][C@]1(C)CC[C@H]2[C@@H]([C@@H](C(C)C)CC[C@]2(C)[N+]#[C-])[C@H]1O', '7 h');

* * *

Test: Pharmacokinetics after oral administration to P. falciparum-infected mice (Table S10)
Format: in vivo, P. falciparum-infected SCID mice
Settings: SCID, mouse, whole blood, po, 50 mg/kg, 50mg/kg oral in 1% Methylcellulose, infected mice, Mean; read-out: Cmax
Description: An Acquity ultra-performance liquid chromatography (UPLC) system (Waters Corp., Milford, MA, USA) couple to a triple quadrupole mass spectrometer (API 4000, AB Sciex, Foster City, CA, USA) was used for the analysis ([99]). Blood concentration time data were analyzed by Non-Compartmental PK analysis using Phoenix WinNonlin software (Certara, NY, US) to calculate PK parameters. […] mg/kg per day for four consecutive days. Treatment started at day 3 and finished at day 6 after infection. […]
Measured endpoint: Cmax (ng/mL)

INSERT INTO measurements (item_smiles, endpoint_unit, endpoint_value) VALUES
  ('[C-]#[N+][C@]1(C)CC[C@H]2[C@@H]([C@@H](C(C)C)CC[C@]2(C)[N+]#[C-])[C@H]1O', 'ng/mL', 7920);

* * *

Assay: Pharmacokinetics after oral administration to P. falciparum-infected mice (Table S10)
Format: in vivo, P. falciparum-infected SCID mice
Conditions: SCID, mouse, whole blood, po, 50 mg/kg, 50mg/kg oral, infected mice, Mean; read-out: AUCINF_obs
Measured endpoint: AUC(0-inf) (µg·h/mL)

INSERT INTO results (item_smiles, endpoint_unit, endpoint_value) VALUES
  ('[C-]#[N+][C@]1(C)CC[C@H]2[C@@H]([C@@H](C(C)C)CC[C@]2(C)[N+]#[C-])[C@H]1O', 'µg·h/mL', 105);

* * *

System: THP1
Assay: Human cell line activity, THP1
Format: cell-based
Details: THP-1, read-out: IC50 (µM) THP1
Measured endpoint: IC50 (µM)

INSERT INTO measurements (item_smiles, measured_endpoint, endpoint_value) VALUES
  ('[C-]#[N+][C@]1(C)CC[C@H]2[C@@H]([C@@H](C(C)C)CC[C@]2(C)[N+]#[C-])[C@H]1O', 'IC50', 12);

Value source: paper PMC11793105
